All values here come from PubChem BioAssay AID1159580.

experiment: chemical genetic growth profiling, strain panel (AID 1159580);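 note: tested at 20 µM; growth read once vehicle control cultures reached saturation at 30 °C; 1 = growth at the plate median or of vehicle wells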; details: S. cerevisiae deletion strains, growth OD, locus YDR159W, strain sac3, stronger effect = lower value
Among all 5,500 compounds or so, about 2,000 (36%) were called active. About 18% were inconclusive and are not listed. This is one part of the list.
Below: a set of entries, each annotated with reported normalized growth.
// response body must contain only the number

Worked examples, 3 compounds total:
COc1cc2c(cc1OC)C(=O)OC2 :: 1.01
COc1ccc2cc([C@H](C)CO)ccc2c1 :: 1
CC1(C)OC(=O)NC1=O :: 0.983

Attention now turns to another entry.
Enquiry: Identify measured normalized growth associated with CCOC(=O)[C@H](CCc1ccccc1)N[C@H]1CCc2ccccc2N(CC(=O)O)C1=O
Return: 1.01

###

The entries below come with measured normalized growth values attached.
assay: chemical genetic growth profiling, strain panel (AID 1159580);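 note: tested at 20 µM; growth read once vehicle control cultures reached saturation at 30 °C; 1 = growth at the plate median or of vehicle wells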; conditions: S. cerevisiae deletion strains, growth OD, locus YGL167C, strain pmr1, stronger effect = lower value
Hit rate of the full screen: of about 5,500 compounds, about 2,000 (36%) were called active. Not shown: some 18% with an inconclusive outcome. The list shows a part of the results.
// print number alone

Enquiry: Report measured normalized growth; entry is CCCCNc1cc(C(=O)O)cc(S(N)(=O)=O)c1Oc1ccccc1
Return: 1

Enquiry: State, in one line, measured normalized growth of C=C1C2CC[C@H]3[C@]4(C)C[C@H](OC5OC(CO)C(OS(=O)(=O)O)C(OS(=O)(=O)O)C5OC(=O)CC(C)C)C[C@@H](C(=O)O)[C@H]4CC[C@]3(C2)[C@H]1O (stereo partly drawn)
Return: 1.01

Enquiry: For the compound N=c1ccn2c(n1)O[C@@H]1C2O[C@H](CO)[C@H]1O (stereo partly drawn) , give its measured normalized growth value.
Return: 0.984

Enquiry: Tell me measured normalized growth for CCOC(=O)C(=O)C1(C(=O)OCC)Oc2cc(OC)cc(OC)c2C(=O)C1c1ccccc1 (stereo not drawn) please.
Return: 0.911

Enquiry: Quickly give me recorded normalized growth for CC1CC2C3CC(F)C4=CC(=O)C=CC4(C)C3(F)C(O)CC2(C)C1(O)C(=O)CO (stereo not drawn)
Return: 0.991

Enquiry: Consider the compound CC(=O)OC(C)(C)[C@@H]1Cc2cc3ccc(=O)oc3cc2O1 and give its recorded normalized growth.
Return: 0.949

###

test: chemical genetic growth profiling, strain panel (AID 1159580);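 note: tested at 20 µM; growth read once vehicle control cultures reached saturation at 30 °C; 1 = growth at the plate median or of vehicle wells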; conditions: S. cerevisiae deletion strains, growth OD, locus YML070W, strain DAK1, stronger effect = lower value
About 2,000 (36%) of roughly 5,500 compounds were called active. Roughly 18% stayed inconclusive and do not appear here. Some of the results follow.
Label key: 1.0 means normalized growth under 0.9; 0.0 means normalized growth of 0.9 or more.

OC1(C(F)(F)F)CC(C23CC4CC(CC(C4)C2)C3)=NN1 (configuration not stated) :: 1.0
O=S(=O)(Nc1cccc2nsnc12)c1cc(Cl)sc1Cl :: 0.0
O=C(Oc1ccc(C(F)(F)F)cc1[N+](=O)[O-])c1cccc(Cl)c1 :: 1.0
Cc1ccc(OCC2SCCN2C(=O)c2ccc(C(F)(F)F)cc2)c([N+](=O)[O-])c1 (configuration not stated) :: 0.0

Continue with the next compound.
Enquiry: Below 0.9 on normalized growth? Entry O=C(N/C=C/c1ccsc1)Nc1cc(C(F)(F)F)cc(C(F)(F)F)c1
Return: 1.0
